This collection of values is drawn from the supplement of paper PMC6470124.

protocol details: absolute recovery over mixed-bed multilayer solid-phase extraction; higher = better recovery
measurement parameters: surface water; enrichment method: SPE
experimental endpoint: absolute recovery

Answered examples (5):
compound	absolute recovery
Cc1cccc(C)c1N(Cn1cccn1)C(=O)CS(=O)(=O)[O-]	95.6%
CCC(C)C(=O)OC1CC(O)C=C2C=CC(C)C(CCC(O)CC(O)CC(=O)[O-])C21 (stereo not given)	91.2%
CCCCCCCCn1sccc1=O	91.6%
CC(=O)Nc1ccc(S(=O)(=O)[N-]c2cc(C)on2)cc1	97.9%
CC(C)c1ccc(NC(=O)N(C)C)cc1	97.4%

// absolute recovery value for Cc1cc(C2CC2)nc(Nc2ccccc2)n1 : 93.8%

// absolute recovery value for COCC(=O)Nc1c(I)c(C(=O)NCC(O)CO)c(I)c(C(=O)N(C)CC(O)CO)c1I (stereo not given) : 79.5%

// absolute recovery value for C#CC(C)(C)NC(=O)c1cc(Cl)cc(Cl)c1 [Propyzamide] : 88.9%

// absolute recovery value for CCOc1cc(Oc2ccc(C(F)(F)F)cc2Cl)ccc1[N+](=O)[O-] : 83.9%

// absolute recovery value for Nc1[nH]c(=O)ncc1F : 5.9%

// absolute recovery value for CC(C)N(C(=O)CCl)c1ccccc1 : 87%
